meta.source: the supplement of paper PMC6331611

tested on: Salmonella enterica serovar Typhimurium SL1344; experiment: intracellular MIC (10-fold luminescence reduction); higher = less potent; details: RAW264.7 macrophages
Counter-ions that a name gives are not always drawn.
Recorded measurements of intracellular MIC, one per entry
Quantity name: intracellular MIC

compound=O=C(N[C@H](CO)[C@H](O)c1ccc([N+](=O)[O-])cc1)C(Cl)Cl result="≤ 0.78 µM"
compound="C[C@H]1COc2c(C3(N)CC3)c(F)cc3c(=O)c(C(=O)O)cn1c23 [PAZUFLOXACIN MESYLATE]" result="≤ 0.78 µM"
compound=O=C(CCCN1CCC2(CC1)C(=O)NCN2c1ccccc1)c1ccc(F)cc1 result="> 50 µM"
compound=COc1cc(Cc2cnc(N)nc2N)cc(OC)c1OC result="≤ 0.78 µM"
compound=Nc1ccncc1 result="> 50 µM"
compound=CC(=O)[C@H]1CC[C@H]2[C@@H]3C[C@H](C)C4=CC(=O)CC[C@]4(C)[C@H]3[C@@H](O)C[C@]12C result="> 50 µM"
compound=CCn1cc(C(=O)O)c(=O)c2cc3c(cc21)OCO3 result="1.56 µM"
compound=Cc1ccc(Nc2c(F)cccc2Cl)c(CC(=O)O)c1 result="≤ 0.78 µM"
compound=Oc1c(Cl)cc(Cl)c2cccnc12 result="> 50 µM"
compound="CCn1cc(C(=O)O)c(=O)c2cc(F)c(N3CCNC(C)C3)c(F)c21 (configuration not stated) [LOMEFLOXACIN HYDROCHLORIDE]" result="≤ 0.78 µM"
compound=CC[C@H]1OC(=O)[C@H](C)[C@@H](O[C@H]2C[C@@](C)(OC)[C@@H](O)[C@H](C)O2)[C@H](C)[C@@H](O[C@@H]2O[C@H](C)C[C@H](N(C)C)[C@H]2O)[C@](C)(O)C[C@@H](C)CN(C)[C@H](C)[C@@H](O)[C@]1(C)O result="≤ 0.78 µM"
compound="C[n+]1cc2c3c(ccc2c2ccc4cc5c(cc4c21)OCO5)OCO3 [SANGUINARINE SULFATE]" result="25 µM"
compound="CCCCCN(C)CCC(O)(P(=O)(O)O)P(=O)(O)O [IBANDRONATE SODIUM]" result="1.56 µM"
compound=Oc1cc(Cl)ccc1Oc1ccc(Cl)cc1Cl result="1.56 µM"
compound="CCCCC(=O)O[C@]1(C(=O)CO)[C@@H](C)C[C@H]2[C@@H]3CCC4=CC(=O)C=C[C@]4(C)[C@@]3(F)[C@@H](O)C[C@@]21C [BETAMETHASONE VALERATE]" result="12.5 µM"
compound=CCCCCCNC(=O)n1cc(F)c(=O)[nH]c1=O result="1.56 µM"
compound=Oc1c(Br)cc(Br)c2cccnc12 result="> 50 µM"
compound=[O-][n+]1ccccc1[S-].[O-][n+]1ccccc1[S-].[Zn+2] result="3.13 µM"
compound=CC(C)(O/N=C(\C(=O)N[C@@H]1C(=O)N2C(C(=O)[O-])=C(C[n+]3ccccc3)CS[C@H]12)c1csc(N)n1)C(=O)O result="> 50 µM"
compound="CO/N=C(\\C(=O)N[C@@H]1C(=O)N2C(C(=O)O)=C(COC(C)=O)CS[C@H]12)c1csc(N)n1 [CEFOTAXIME SODIUM]" result="≤ 0.78 µM"
compound="CC(C)NCC(O)COc1cccc2[nH]ccc12 (configuration not stated)" result="1.56 µM"
compound="CO/N=C1\\CN(c2nc3c(cc2F)c(=O)c(C(=O)O)cn3C2CC2)CC1CN (configuration not stated) [GEMIFLOXACIN MESYLATE]" result="1.56 µM"
compound="CO[C@@H]1[C@@H](OC(N)=O)[C@@H](O)[C@H](Oc2ccc3c(O)c(NC(=O)c4ccc(O)c(CC=C(C)C)c4)c(=O)oc3c2C)OC1(C)C [NOVOBIOCIN SODIUM]" result="> 50 µM"
compound="CNC(=O)Oc1ccc2c(c1)[C@]1(C)CCN(C)[C@@H]1N2C [PHYSOSTIGMINE SALICYLATE]" result="≤ 0.78 µM"
compound=CCOC(=O)Nc1nc2ccccc2[nH]1 result="> 50 µM"
compound=CS(=O)(=O)c1ccc([C@@H](O)[C@@H](CF)NC(=O)C(Cl)Cl)cc1 result="6.25 µM"
compound="CO/N=C(\\C(=O)N[C@@H]1C(=O)N2C(C(=O)O)=C(CSC(=O)c3ccco3)CS[C@H]12)c1csc(N)n1 [CEFTIOFUR HYDROCHLORIDE]" result="≤ 0.78 µM"
compound="O=C(O)c1cn(-c2ccc(F)cc2)c2cc(N3CCNCC3)c(F)cc2c1=O [SARAFLOXACIN HYDROCHLORIDE]" result="≤ 0.78 µM"
compound=N[C@@H](Cc1cc(I)c(Oc2ccc(O)c(I)c2)c(I)c1)C(=O)O result="> 50 µM"
compound="CC1COc2c(N3CCN(C)CC3)c(F)cc3c(=O)c(C(=O)O)cn1c23 (configuration not stated)" result="1.56 µM"
compound="CCCCC(CC)CN1CN(CC(CC)CCCC)CC(C)(N)C1 (configuration not stated)" result="> 50 µM"
compound=OC[C@H]1O[C@H](O[C@]2(CCl)O[C@H](CCl)[C@@H](O)[C@@H]2O)[C@H](O)[C@@H](O)[C@H]1Cl result="≤ 0.78 µM"
